This collection of values is drawn from paper PMC6450621.

Assay: Pharmacokinetic study after intravenous administration in control and hyperuricemic rats (plasma, urine, kidney)
Details: rat, plasma, iv, 30 mg/kg, AUC0-4, control rats; iv metformin 30 mg/kg; individual rat
Recorded Endpoint: AUC(0-t) (µM·h)
Give bare numbers, in µM·h.

Query CN(C)C(=N)N=C(N)N [Metformin, metformin] yields AUC(0-t) of 98.2

----------
Assay: Pharmacokinetic study after intravenous administration in control and hyperuricemic rats (plasma, urine, kidney);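 also: Pentobarbital-anesthetized rats with cannulated bladder, jugular plasma, timed urine and saline kidney homogenate assayed by HPLC or LC-MS/MS, Kp as kidney over plasma level at 4 h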
Details: rat, plasma and urine, iv, CLR, control rats; iv metformin 30 mg/kg or cephalexin 10 mg/kg, creatinine endogenous; mean n=3
Recorded Endpoint: CL renal (L/h/kg)
One number for each entry, in L/h/kg.

The recorded CL renal for entry "CN(C)C(=N)N=C(N)N" equals 1.38
